# target.or.test.system: PAF receptor (specific receptor binding site on human platelet plasma membranes) (Homo sapiens)
# Sequence (P25105 whole entry): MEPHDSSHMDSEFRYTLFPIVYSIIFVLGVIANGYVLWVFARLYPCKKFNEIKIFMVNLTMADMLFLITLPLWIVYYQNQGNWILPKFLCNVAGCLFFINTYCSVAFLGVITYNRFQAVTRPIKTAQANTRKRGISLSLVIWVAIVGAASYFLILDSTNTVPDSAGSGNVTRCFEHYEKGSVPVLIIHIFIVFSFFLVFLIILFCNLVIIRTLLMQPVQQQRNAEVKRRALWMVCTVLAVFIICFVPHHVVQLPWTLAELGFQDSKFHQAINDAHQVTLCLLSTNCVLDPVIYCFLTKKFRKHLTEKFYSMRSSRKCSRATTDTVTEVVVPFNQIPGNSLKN
# protocol.summary: Inhibition of 3H-PAF binding to human platelet plasma membrane (receptor binding, filtration)
# condition.description: 0.5 nM 3H-PAF, 0° C., 1 hour incubation
Reported IC50 by item:
measurement.kind: IC50 (µM)

# compound, measurement.kind, unit.of.measure, recorded.number
rows = [
    ("CCOC(=O)[C@H](CC(C)C)N(C)C(=O)c1ccc(Cn2c(C)nc3cnccc32)cc1", "IC50", "µM", 0.01),
    ("CN(C(=O)c1ccc(Cn2cnc3cnccc32)cc1)C1CCCCC1 [Comparative Example, reference compound]", "IC50", "µM", 10),
]

Data provenance is patent US5180724A.
